system: rodent lifetime carcinogenesis bioassay, tumor incidence TD50; experiment: carcinogenic potency in animals, long-term in vivo studies, CPDB compilation (AID 1745844); conditions: mouse; strain B6C3F1; females; in feed; site: forestomach; lesion: several types; types named in the paper; dosed 96 weeks; study length 106 weeks
Active and inactive are the calls of the source. No rule for the calls is given here.
REPORTED METRIC: TD50

Query :: Note down TD50 recorded for CC
Result :: 111000 mg/kg/day (inactive)

###

tested on: rodent lifetime carcinogenesis bioassay, tumor incidence TD50; assay: carcinogenic potency in animals, long-term in vivo studies, CPDB compilation (AID 1745844); conditions: rat; strain Sprague-Dawley; females; inhaled; site: any site (literature study); lesion: several types; types named in the paper; dosed 104 weeks; study length 150 weeks
REPORTED METRIC: TD50 (mg/kg/day)
One number for each entry, in mg/kg/day.

Query :: Note down TD50 recorded for C=C(Cl)Cl
Result :: 119

###

tested on: rodent lifetime carcinogenesis bioassay, tumor incidence TD50; experiment: carcinogenic potency in animals, long-term in vivo studies, CPDB compilation (AID 1745844); settings: mouse; strain B6C3F1; females; by gavage; site: liver; lesion: hepatocellular adenoma + hepatocellular carcinoma; dosed 104 weeks; study length 106 weeks
REPORTED METRIC: TD50 (mg/kg/day)
Numbers only, in mg/kg/day.

Query :: Note down TD50 recorded for ClC=CCCl
Result :: 89.3

###

system: rodent lifetime carcinogenesis bioassay, tumor incidence TD50; test: carcinogenic potency in animals, long-term in vivo studies, CPDB compilation (AID 1745844); conditions: mouse; strain B6C3F1; males; in drinking water; site: liver; lesion: hepatocellular adenoma; dosed 61 weeks; study length 61 weeks
REPORTED METRIC: TD50 (mg/kg/day)
Numbers only, in mg/kg/day.

Query :: Note down TD50 recorded for ClC=C(Cl)Cl
Result :: 502

###

tested on: rodent lifetime carcinogenesis bioassay, tumor incidence TD50; test: carcinogenic potency in animals, long-term in vivo studies, CPDB compilation (AID 1745844); conditions: rat; strain Fischer 344; males; in feed; site: any site (literature study); lesion: several types; types named in the paper; dosed 99 weeks; study length 103 weeks
REPORTED METRIC: TD50 (mg/kg/day)
One number for each entry, in mg/kg/day.

Query :: Provide TD50, system rodent lifetime carcinogenesis bioassay, tumor incidence TD50, entry CCC1(c2ccccc2)C(=O)NCNC1=O
Result :: 15.4

###

test system: rodent lifetime carcinogenesis bioassay, tumor incidence TD50; assay: carcinogenic potency in animals, long-term in vivo studies, CPDB compilation (AID 1745844); details: hamster; strain Syrian Golden; males; by gavage; site: liver; lesion: hepatocellular adenoma; dosed 50 weeks; study length 85 weeks
REPORTED METRIC: TD50 (mg/kg/day)
Give bare numbers, in mg/kg/day.

Query :: Note down TD50 recorded for O=NN1CCC1
Result :: 10.7

###

test system: rodent lifetime carcinogenesis bioassay, tumor incidence TD50; assay: carcinogenic potency in animals, long-term in vivo studies, CPDB compilation (AID 1745844); conditions: rat; strain F344/DuCrj; females; in feed; site: small intestine; lesion: several types; types named in the paper; dosed 67 weeks; study length 67 weeks
REPORTED METRIC: TD50

Query :: Provide TD50, system rodent lifetime carcinogenesis bioassay, tumor incidence TD50, entry Cc1cccn2c1nc1ccc(N)nc12
Result :: 26.1 mg/kg/day

Data credit: PubChem BioAssay AID1745844
